# reported drug sensitivity score; entries follow
- System: FMOC02_3 (patient-derived low-grade serous ovarian cancer cells)
- Test method notes: drug sensitivity score (DSS3, normalised partial AUC of % inhibition dose-response) (DSS (score)); higher = more sensitive (stronger inhibition of viability); extreme values may be limits of the assay
- Experimental setup: 72 h; library: FO5A; assay format: 2D, 384-well, CellTiter-Glo
Measured property: drug sensitivity score

INSERT INTO measurements (compound, measured_property, reported_result) VALUES
  ('Clc1ccccc1C(c1ccccc1)(c1ccccc1)n1cccn1', 'drug sensitivity score', 0),
  ('C[C@]12CC[C@H](O)CC1=CC[C@@H]1[C@@H]2CC[C@]2(C)C(c3cccnc3)=CC[C@@H]12', 'drug sensitivity score', 0),
  ('COc1cccc2c1C(=O)c1c(O)c3c(c(O)c1C2=O)C[C@@](O)(C(=O)CO)C[C@@H]3O[C@H]1C[C@H](N)[C@@H](O)[C@H](C)O1 [Epirubicin]', 'drug sensitivity score', 7),
  ('COc1cccc(OCCCN)c1-c1cc(Nc2cnc(C#N)cn2)n[nH]1', 'drug sensitivity score', 18.6);

* * *

- Tested on: FMOC04 (patient-derived high-grade serous ovarian cancer cells)
- Test method notes: drug sensitivity score (DSS3, normalised partial AUC of % inhibition dose-response) (DSS (score)); higher = more sensitive (stronger inhibition of viability); extreme values may be limits of the assay
- Experimental setup: 72 h; library: FO5A; assay format: 2D, 384-well, CellTiter-Glo
# reported drug sensitivity score; entries follow
Measured property: drug sensitivity score

INSERT INTO results (compound, reported_result) VALUES
  ('C[C@]12CC[C@@H]3c4ccc(O)cc4C[C@@H](CCCCCCCCC[S+]([O-])CCCC(F)(F)C(F)(F)F)[C@H]3[C@@H]1CC[C@@H]2O (some centres undefined) [Fulvestrant]', 0),
  ('CN(C)C(=O)c1ccc(S(=O)(=O)c2ccc(NC(=O)[C@@](C)(O)C(F)(F)F)c(Cl)c2)cc1 [AZD7545]', 0),
  ('COc1ccc(Cn2ccc3ccc(C(=O)NO)cc32)cc1', 0),
  ('Clc1ccccc1C(c1ccccc1)(c1ccccc1)n1cccn1 [TRAM-34]', 0),
  ('CCCOc1ccn2c(C(C)=O)cc(-c3ccccc3S(C)(=O)=O)c2c1 [GSK2801]', 0),
  ('Cc1c(Cn2c(C)nc3c(C(=O)O)cc(N4CCOCC4)cc32)cccc1C(F)(F)F', 0.65),
  ('CS(=O)(=O)c1ccc(C(=O)Nc2ccc(Cl)c(-c3ccccn3)c2)c(Cl)c1 [Vismodegib]', 0),
  ('C[C@]12CC[C@H](O)CC1=CC[C@@H]1[C@@H]2CC[C@]2(C)C(c3cccnc3)=CC[C@@H]12 [Abiraterone]', 0.05),
  ('CN(C)C(=O)c1cc2cnc(Nc3ccc(N4CCNCC4)cn3)nc2n1C1CCCC1 [Ribociclib]', 0.05),
  ('CC[C@H](CO)Nc1nc(NCc2ccccc2)c2ncn(C(C)C)c2n1 [Seliciclib]', 0.1),
  ('CNC(=O)c1ccc(N2C(=S)N(c3cnc(C#N)c(C(F)(F)F)c3)C(=O)C23CCC3)cc1F [Apalutamide]', 0),
  ('N#CC(c1ccnc(OCc2ccc(CN3CCOCC3)cc2)n1)c1nc2ccccc2s1 (centres undefined) [Bentamapimod]', 0.4),
  ('COc1cc2c(Oc3ccc(NC(=O)C4(C(=O)Nc5ccc(F)cc5)CC4)cc3F)ccnc2cc1OCCCN1CCOCC1 [Foretinib]', 1.1),
  ('C[C@H]1CNCCCN1S(=O)(=O)c1cccc2cncc(F)c12 [Ripasudil]', 0),
  ('O=c1sn(-c2cccc3ccccc23)c(=O)n1Cc1ccccc1 [Tideglusib]', 0),
  ('FC(F)(F)c1ccc(CNc2ccc(Cc3c[nH]c4ncc(Cl)cc34)cn2)cn1 [Pexidartinib]', 0.1),
  ('CN1CCC(COc2cnc(-c3cccc(Cn4nc(-c5cccc(C#N)c5)ccc4=O)c3)nc2)CC1 [Tepotinib]', 0.75),
  ('CCC(C)n1ncn(-c2ccc(N3CCN(c4ccc(OCC5COC(Cn6cncn6)(c6ccc(Cl)cc6Cl)O5)cc4)CC3)cc2)c1=O (centres undefined) [Itraconazole]', 0.1),
  ('CNC(=O)c1ccc2cc([C@@]3(O)CCn4cncc43)ccc2c1 [Orteronel]', 0);

* * *

- Tested on: FMOC25_1 (patient-derived low-grade serous ovarian cancer cells)
- Test method notes: drug sensitivity score (DSS3, normalised partial AUC of % inhibition dose-response) (DSS (score)); higher = more sensitive (stronger inhibition of viability); extreme values may be limits of the assay
- Experimental setup: 72 h; library: FO4B; assay format: 2D, 384-well, CellTiter-Glo
Measured property: drug sensitivity score

INSERT INTO measurements (compound, reported_result) VALUES
  ('C[C@H]1C[C@@H]2[C@H]([C@@H](O)C[C@@]3(C)[C@H]2CC[C@]3(O)C(=O)CO)[C@@]2(C)C=CC(=O)C=C12', 0),
  ('O=C1CCC(N2C(=O)c3ccccc3C2=O)C(=O)N1 (stereo not drawn) [Thalidomide]', 0),
  ('CCN(c1cc(-c2ccc(CN3CCOCC3)cc2)cc(C(=O)NCc2c(C)cc(C)[nH]c2=O)c1C)C1CCOCC1', 0),
  ('CC(C)(C#N)c1cc(Cn2cncn2)cc(C(C)(C)C#N)c1', 0),
  ('C[C@@H](Nc1cc(F)cc(F)c1)c1cc(C(=O)N(C)C)cc2c(=O)cc(N3CCOCC3)oc12', 1.5),
  ('C#Cc1cccc(Nc2ncnc3cc(OCCOC)c(OCCOC)cc23)c1', 11.7),
  ('Nc1nc(OCc2cc(Br)cs2)c2[nH]cnc2n1', 0),
  ('Cc1nc(C(=O)NCC(=O)O)c(O)c2ccc(Oc3ccccc3)cc12', 0);

* * *

- System: FMOC17 (patient-derived low-grade serous ovarian cancer cells)
- Test method notes: drug sensitivity score (DSS3, normalised partial AUC of % inhibition dose-response) (DSS (score)); higher = more sensitive (stronger inhibition of viability); extreme values may be limits of the assay
- Experimental setup: 72 h; library: FO5A; assay format: 2D, 384-well, CellTiter-Glo
Measured property: drug sensitivity score

INSERT INTO measurements (structure_smiles_string, reported_result) VALUES
  ('CNC(=O)c1ccc(-c2cnc3ncc(Cc4ccc5ncccc5c4)n3n2)cc1F', 0),
  ('CC/C(=C(\c1ccccc1)c1ccc(OCCN(C)C)cc1)c1ccccc1', 3),
  ('Oc1ncnc2[nH]ncc12', 0),
  ('CC1(C)C(C(=O)Nc2ccc(S(=O)(=O)c3ccc(NC(=O)C4C(C)(C)C4(C)C)cc3)cc2)C1(C)C', 1.4),
  ('NC(=O)c1cccc2cn(-c3ccc([C@@H]4CCCNC4)cc3)nc12', 0);

* * *

- Test system: FMOC09 (patient-derived high-grade serous ovarian cancer cells)
- Test method notes: drug sensitivity score (DSS3, normalised partial AUC of % inhibition dose-response) (DSS (score)); higher = more sensitive (stronger inhibition of viability); extreme values may be limits of the assay
- Experimental setup: 72 h; library: FO5A; assay format: 2D, 384-well, CellTiter-Glo
Assign 1 to entries whose drug sensitivity score meets or exceeds 3; assign 0 to the rest.

INSERT INTO assay_data (compound, target_under_test, label) VALUES
  ('CCOc1cc2ncc(C#N)c(Nc3ccc(OCc4ccccn4)c(Cl)c3)c2cc1NC(=O)/C=C/CN(C)C [Neratinib]', 'FMOC09', 1),
  ('CC(C)Nc1cc(-c2c[nH]c(C(=O)N[C@H](CO)c3cccc(Cl)c3)c2)c(Cl)cn1 [Ulixertinib]', 'FMOC09', 1),
  ('CO[C@@H](C)Cn1c(=O)n(C)c2cnc3ccc(-c4cncc(C(C)(C)O)c4)cc3c21', 'FMOC09', 1),
  ('CNC(=O)c1ccccc1Nc1cc(Nc2ccc(N3CCOCC3)cc2OC)ncc1C(F)(F)F [VS-4718]', 'FMOC09', 1),
  ('CC[C@@H]1C(=O)OC[C@@H]1Cc1cncn1C [Pilocarpine]', 'FMOC09', 0),
  ('NC(=O)N1CCC(CC(=O)N2CCC([C@H]3c4ncc(Br)cc4CCc4cc(Cl)cc(Br)c43)CC2)CC1 [Lonafarnib]', 'FMOC09', 1),
  ('COc1cc2/c(=N/c3ccc(Br)cc3F)nc[nH]c2cc1OCC1CCN(C)CC1 [Vandetanib]', 'FMOC09', 1),
  ('CCC(C)n1ncn(-c2ccc(N3CCN(c4ccc(OCC5COC(Cn6cncn6)(c6ccc(Cl)cc6Cl)O5)cc4)CC3)cc2)c1=O (stereo not drawn) [Itraconazole]', 'FMOC09', 0);

* * *

- Tested on: FMOC06 (patient-derived mucinous ovarian cancer cells)
- Test method notes: drug sensitivity score (DSS3, normalised partial AUC of % inhibition dose-response) (DSS (score)); higher = more sensitive (stronger inhibition of viability); extreme values may be limits of the assay
- Experimental setup: 72 h; library: FO5A; assay format: 2D, 384-well, CellTiter-Glo
Measured property: drug sensitivity score

INSERT INTO results (compound, reported_result) VALUES
  ('CNC(=O)c1ccccc1Sc1ccc2c(/C=C/c3ccccn3)n[nH]c2c1 [Axitinib]', 0),
  ('Cc1nc(C(=O)NCC(=O)O)c(O)c2ccc(Oc3ccccc3)cc12 [Roxadustat]', 0),
  ('CC(C)C[C@H](NC(=O)[C@H](Cc1ccccc1)NC(=O)c1cnccn1)B(O)O [Bortezomib]', 26.2),
  ('CCN1CCN(c2ccc(Nc3cc(N(C)C(=O)Nc4c(Cl)c(OC)cc(OC)c4Cl)ncn3)cc2)CC1 [Infigratinib]', 0),
  ('CC1(C)CCC(CN2CCN(c3ccc(C(=O)NS(=O)(=O)c4ccc(NCC5CCOCC5)c([N+](=O)[O-])c4)c(Oc4cnc5[nH]ccc5c4)c3)CC2)=C(c2ccc(Cl)cc2)C1 [Venetoclax]', 0),
  ('O=C(O)CC[C@H]1CC[C@@](c2cc(F)ccc2F)(S(=O)(=O)c2ccc(Cl)cc2)CC1 [MK-0752]', 0.3),
  ('COc1cc(OC)c(/C=C/S(=O)(=O)Cc2ccc(OC)c(NCC(=O)O)c2)c(OC)c1 [Rigosertib]', 14.3),
  ('c1cc(CN2CCCNCCNCCCNCC2)ccc1CN1CCCNCCNCCCNCC1 [Plerixafor]', 0);
